# credit: BigSolDB 2.1

Settings: in isobutanol, 303.15 K
measured.property: solubility (mole fraction)
One number for each entry.

input: Which solubility (mole fraction) value is on record for CC1(C)[C@H](C(=O)O)[C@@H]1/C=C(\Cl)C(F)(F)F (racemic) ?
output: 0.13

###

Details: in n-butyl acetate, 283.15 K
measured.property: solubility (mole fraction)
Give bare numbers.

input: Tell me the measured solubility (mole fraction) of CC1(C)[C@H](C(=O)O)[C@@H]1/C=C(\Cl)C(F)(F)F (racemic) , please.
output: 0.089

###

Details: in methanol, 293.15 K
measured.property: solubility (mole fraction)
One number for each entry.

input: For CC1(C)[C@H](C(=O)O)[C@@H]1/C=C(\Cl)C(F)(F)F (racemic) , what is its reported solubility (mole fraction)?
output: 0.0722

###

Conditions: in methyl acetate, 323.15 K
measured.property: solubility (mole fraction)
Numbers only.

input: Please look up its solubility (mole fraction): CC1(C)[C@H](C(=O)O)[C@@H]1/C=C(\Cl)C(F)(F)F (racemic)
output: 0.226

###

Conditions: in sec-butanol, 323.15 K
measured.property: solubility (mole fraction)
One number for each entry.

input: Value lookup for solubility (mole fraction); key = CC1(C)[C@H](C(=O)O)[C@@H]1/C=C(\Cl)C(F)(F)F (racemic)
output: 0.285

###

Details: in tert-butanol, 323.15 K
measured.property: solubility (mole fraction)
One number for each entry.

input: // query solubility (mole fraction) value for entry CC1(C)[C@H](C(=O)O)[C@@H]1/C=C(\Cl)C(F)(F)F (racemic)
output: 0.331

###

Conditions: in n-butyl acetate, 303.15 K
measured.property: solubility (mole fraction)
Answers are plain numbers.

input: Recorded solubility (mole fraction) of CC1(C)[C@H](C(=O)O)[C@@H]1/C=C(\Cl)C(F)(F)F (racemic) , please.
output: 0.153

###

Conditions: in methanol, 303.15 K
measured.property: solubility (mole fraction)

input: Fill blank: measured solubility (mole fraction) of the compound CC1(C)[C@H](C(=O)O)[C@@H]1/C=C(\Cl)C(F)(F)F (racemic) is ____.
output: 0.098

###

Conditions: in ethanol, 293.15 K
measured.property: solubility (mole fraction)

input: Name the reported solubility (mole fraction) value associated with the compound CC1(C)[C@H](C(=O)O)[C@@H]1/C=C(\Cl)C(F)(F)F (racemic)
output: 0.0944

###

Conditions: in n-propanol, 283.15 K
measured.property: solubility (mole fraction)
Answers are plain numbers.

input: Any idea what its solubility (mole fraction) is? The compound is CC1(C)[C@H](C(=O)O)[C@@H]1/C=C(\Cl)C(F)(F)F (racemic)
output: 0.0753

###

Settings: in ethyl acetate, 298.15 K
measured.property: solubility (mole fraction)

input: Quick one: solubility (mole fraction) of CC1(C)[C@H](C(=O)O)[C@@H]1/C=C(\Cl)C(F)(F)F (racemic) ?
output: 0.123

###

Conditions: in n-butyl acetate, 313.15 K
measured.property: solubility (mole fraction)
One number for each entry.

input: Looking for the measured solubility (mole fraction) of CC1(C)[C@H](C(=O)O)[C@@H]1/C=C(\Cl)C(F)(F)F (racemic) , can you help?
output: 0.195

###

Details: in methyl acetate, 298.15 K
measured.property: solubility (mole fraction)
Answers are plain numbers.

input: Suppose we examine the compound CC1(C)[C@H](C(=O)O)[C@@H]1/C=C(\Cl)C(F)(F)F (racemic) ; what solubility (mole fraction) value has been reported?
output: 0.114
